Taken from paper PMC10747112.

Some molecules, each annotated with its measured viability at 10 µM.
assay: in vitro; format: cell-based; conditions: human
Express it in %; write the number only.

Recorded results for 3 molecules are shown here.
Substance smiles | Observation type | Test result
COc1cc(CCC[P+](c2ccccc2)(c2ccccc2)c2ccccc2)cc2c1OCO2 | viability at 10 µM | 97
COc1cc(CCC[P+](c2ccccc2)(c2ccccc2)c2ccccc2)c(OC)c(OC)c1OC | viability at 10 µM | 98
COc1cc(CCC[P+](c2ccccc2)(c2ccccc2)c2ccccc2)c(OC)c2c1OCO2 | viability at 10 µM | 93

--- query ---
Ask: Fill blank: measured viability at 10 µM of the molecule `COc1c(CCC[P+](c2ccccc2)(c2ccccc2)c2ccccc2)cc2c(c1OC)OCO2` is ____.
Result: 95
